measurement protocol: Plasma pharmacokinetics of GAE after single oral administration (HPLC, non-compartmental)
Format: in vivo, mice
condition details: male, C57BL/6, mouse, po, 200 mg/kg, R + GAE group (60Co-γ 5 Gy, GAE 15 min post irradiation), 200 mg/kg b.wt oral
measured parameter: half-life (min)
Give bare numbers, in min.

// recorded half-life for CCOC(=O)c1cc(O)c(O)c(O)c1 [GAE, Ethyl 3,4,5-trihydroxybenzoate] : 22.4

---

measurement protocol: Biodistribution of GAE in liver, kidney, heart, spleen and brain after oral administration
Format: in vivo, mice
condition details: male, C57BL/6, mouse, liver, po, 200 mg/kg, GAE treated group; 1 h; 200 mg/kg b.wt oral; read-out: concentration of GAE in the liver
measured parameter: concentration at 1 h (ng/g)
One number for each entry, in ng/g.

// recorded concentration at 1 h for CCOC(=O)c1cc(O)c(O)c(O)c1 [GAE, Ethyl 3,4,5-trihydroxybenzoate] : 3380
